# Test: Inhibition of aSMase in rat brain microsomal homogenate by fluorescence assay
Value type: IC50 (µM)

[a] CCCCCCCCCCCCS(=O)(=O)OC[C@H]1OC(O)[C@H](OP(=O)(O)O)[C@@H](O)[C@@H]1OP(=O)(O)O (stereo not given in full)
[b] CCCCCCCCS(=O)(=O)OC[C@H]1OC(O)[C@H](OP(=O)(O)O)[C@@H](O)[C@@H]1OP(=O)(O)O (stereo not given in full)
[c] CCS(=O)(=O)OC[C@H]1OC(O)[C@H](OP(=O)(O)O)[C@@H](O)[C@@H]1OP(=O)(O)O (stereo not given in full)
# desc sort on IC50 across 3 compounds Kindly provide the labels arranged according to the requested ordering.
c, b, a

Origin of measurements: ChEMBL document CHEMBL1157720
